experiment: refractive index (Na D-line) (dimensionless); xn = mol fraction of the nth substance listed; conditions: 288.15 K; 100.5 kPa; Liquid; Standard Abbe refractometry; x1 = 0.15
property.measured: refractive index

| compound | measured.result |
| --- | --- |
| CCC(=O)OCc1ccccc1 [benzyl propanoate] + CCO | 1.40891 |
| CCOC(=O)c1ccccc1O [ethyl 2-hydroxybenzoate] + CCO | 1.41504 |
| CCOC(=O)CC(C)=O [ethyl 3-oxobutanoate] + CCO | 1.38 |
| COC(=O)c1ccccc1 [methyl benzoate] + CCO | 1.40825 |
| CC(=O)OCc1ccccc1 [benzyl ethanoate] + CCO | 1.40725 |
| CCOC(=O)CC(C)C [ethyl 3-methylbutanoate] + CCO | 1.37464 |

###

experiment: refractive index (Na D-line) (dimensionless); xn = mol fraction of the nth substance listed; details: 308.15 K; 100.5 kPa; Liquid; Standard Abbe refractometry; x1 = 0.8
property.measured: refractive index

| compound | measured.result |
| --- | --- |
| CCOC(=O)CC(C)=O [ethyl 3-oxobutanoate] + CCO | 1.4069 |
| COC(=O)c1ccccc1 [methyl benzoate] + CCO | 1.49445 |
| CCOC(=O)c1ccccc1O [ethyl 2-hydroxybenzoate] + CCO | 1.50196 |
| CCC(=O)OCc1ccccc1 [benzyl propanoate] + CCO | 1.47986 |
| CCOC(=O)CC(C)C [ethyl 3-methylbutanoate] + CCO | 1.38613 |
| CC(=O)OCc1ccccc1 [benzyl ethanoate] + CCO | 1.48279 |

###

# key: entry, value: refractive index
test: refractive index (Na D-line) (dimensionless); xn = mol fraction of the nth substance listed; details: 308.15 K; 100.5 kPa; Liquid; Standard Abbe refractometry; x1 = 0.6
property.measured: refractive index

| compound | property.measured | measured.result |
| --- | --- | --- |
| CCOC(=O)CC(C)C [ethyl 3-methylbutanoate] + CCO | refractive index | 1.3822 |
| CCOC(=O)c1ccccc1O [ethyl 2-hydroxybenzoate] + CCO | refractive index | 1.48328 |
| COC(=O)c1ccccc1 [methyl benzoate] + CCO | refractive index | 1.47455 |
| CCOC(=O)CC(C)=O [ethyl 3-oxobutanoate] + CCO | refractive index | 1.3994 |
| CCC(=O)OCc1ccccc1 [benzyl propanoate] + CCO | refractive index | 1.46494 |
| CC(=O)OCc1ccccc1 [benzyl ethanoate] + CCO | refractive index | 1.46619 |

###

experiment: xn = mol fraction of the nth substance listed; details: 308.15 K, Wilhelmy plate method, x1 = 0.5
Numbers after ± are expanded uncertainties.
property.measured: surface tension liquid-gas

| compound | property.measured | measured.result |
| --- | --- | --- |
| CCOC(=O)c1ccccc1O [ethyl 2-hydroxybenzoate] + CCO | surface tension liquid-gas | 27.12 ± 0.4 mN/m |
| CCC(=O)OCc1ccccc1 [benzyl propanoate] + CCO | surface tension liquid-gas | 27.33 ± 0.4 mN/m |
| CC(=O)OCc1ccccc1 [benzyl ethanoate] + CCO | surface tension liquid-gas | 28.03 ± 0.4 mN/m |
| COC(=O)c1ccccc1 [methyl benzoate] + CCO | surface tension liquid-gas | 28 ± 0.41 mN/m |
| CCOC(=O)CC(C)=O [ethyl 3-oxobutanoate] + CCO | surface tension liquid-gas | 26.32 ± 0.4 mN/m |

Source: the NIST ThermoML archive (doi:10.1021/je060139a)
